Data provenance: patent US20240199702A1

Recorded IC50, one value per entry.
- EXPERIMENTAL_SYSTEM: Human MDM4 (HDM4) 1-114 (Homo sapiens, UniProt O15151)
- Construct: Human MDM4 (HDM4) 1-114
- Sequence (O15151 1-114): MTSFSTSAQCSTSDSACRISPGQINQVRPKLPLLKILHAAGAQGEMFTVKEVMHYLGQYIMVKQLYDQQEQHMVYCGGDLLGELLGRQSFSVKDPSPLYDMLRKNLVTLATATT
- PROTOCOL: Fluorescence Polarization Assay 2 (MDM4/p53 peptide)
- Assay type: binding
- TEST_CONTEXT: FAM-labeled p53 peptide, 60 minutes
*1 amine or outer side, *2 acyl side, *3 side chain or, on linkers, in order; H or OH if unused. Where a SMILES comes first, the peptide text is derived from it. [ ]: non-standard residue; d: D form. The star is where a group is joined. Ala(thiazol-5-yl) = N[C@@H](Cc1cncs1)C(=O)O; Ala(4-thiazolyl) = N[C@@H](Cc1cscn1)C(=O)O; NMePhe(4-F) = CN[C@@H](Cc1ccc(F)cc1)C(=O)O; Phe(4-Cl) = N[C@@H](Cc1ccc(Cl)cc1)C(=O)O; Phe(4-F) = N[C@@H](Cc1ccc(F)cc1)C(=O)O; X2 = CC1(C)CN([*:1])[C@@H]1C(=O)[*:2]; Ala(cPent) = N[C@@H](CC1CCCC1)C(=O)O; Cyclohexanecarbonyl = O=C(C1CCCCC1)*; NMeCba = CN[C@@H](CC1CCC1)C(=O)O; NMeF = CN[C@@H](Cc1ccccc1)C(=O)O; NMeV = CN[C@H](C(=O)O)C(C)C; Nicotinoyl = O=C(c1cccnc1)*; hSer = N[C@@H](CCO)C(=O)O; NMeA = CN[C@@H](C)C(=O)O; dNMeA = CN[C@H](C)C(=O)O; Aze = O=C(O)[C@@H]1CCN1; Bz = O=C(c1ccccc1)*; Nme = COCCNCC(=O)O; NEtG = CCNCC(=O)O; Sar = CNCC(=O)O

**Q:** Find the recorded IC50 belonging to COCC[C@@H]1NC(=O)[C@H]2CCCN2C(=O)[C@H](Cc2ccc(F)cc2)N(C)C(=O)[C@H](Cc2ccc(Cl)cc2)NC(=O)[C@H]2N(CC2(C)C)C(=O)[C@H](Cc2ccc(F)cc2)NC(=O)CN(CCOC)C(=O)[C@@H](C)N(C)C(=O)[C@H](Cc2cscn2)NC(=O)[C@H](C)N(C)C1=O [compound 11] (cyclo([Ala(4-thiazolyl)][dNMeA][Nme][Phe(4-F)][X2][Phe(4-Cl)][NMePhe(4-F)][dP][hSer](Me)[NMeA])) and report it.
**A:** < 25 nM

**Q:** Follow-up item: COCC[C@@H]1NC(=O)[C@H]2CCCN2C(=O)[C@H](Cc2ccccc2)N(C)C(=O)[C@H](Cc2ccc(Cl)cc2)NC(=O)[C@H](CC2CCC2)N(C)C(=O)[C@H](Cc2ccc(F)cc2)NC(=O)CN(CCOC)C(=O)[C@@H](C)N(C)C(=O)[C@H](Cc2cscn2)NC(=O)[C@H](C)N(C)C1=O [compound 9] (cyclo([Ala(4-thiazolyl)][dNMeA][Nme][Phe(4-F)][NMeCba][Phe(4-Cl)][NMeF][dP][hSer](Me)[NMeA]))
**A:** 50 to 100 nM

**Q:** Follow-up item: COCC[C@@H]1NC(=O)[C@H]2CCCN2C(=O)[C@H](Cc2ccccc2)N(C)C(=O)[C@H](Cc2ccc(Cl)cc2)NC(=O)[C@H]([C@@H](C)OC(=O)C2CCCCC2)NC(=O)[C@H](Cc2ccc(F)cc2)NC(=O)CN(CCOC)C(=O)[C@@H](C)N(C)C(=O)[C@H](Cc2cscn2)NC(=O)[C@H](C)N(C)C1=O [compound 8] (cyclo([Ala(4-thiazolyl)][dNMeA][Nme][Phe(4-F)]T(Cyclohexanecarbonyl)[Phe(4-Cl)][NMeF][dP][hSer](Me)[NMeA]))
**A:** ≥ 100 nM

**Q:** Follow-up item: COCC[C@@H]1NC(=O)[C@H]2CCCN2C(=O)[C@H](Cc2ccccc2)N(C)C(=O)[C@H](Cc2ccc(Cl)cc2)NC(=O)[C@H]([C@@H](C)OC(=O)c2cccnc2)NC(=O)[C@H](Cc2ccc(F)cc2)NC(=O)CN(CCOC)C(=O)[C@@H](C)N(C)C(=O)[C@H](Cc2cscn2)NC(=O)[C@H](C)N(C)C1=O [compound 3] (cyclo([Ala(4-thiazolyl)][dNMeA][Nme][Phe(4-F)]T(Nicotinoyl)[Phe(4-Cl)][NMeF][dP][hSer](Me)[NMeA]))
**A:** 50 to 100 nM

**Q:** Follow-up item: COCC[C@@H]1NC(=O)[C@H]2CCCN2C(=O)[C@H](Cc2ccccc2)N(C)C(=O)[C@H](Cc2ccc(Cl)cc2)NC(=O)[C@H]([C@@H](C)OC(=O)c2ccccc2)NC(=O)[C@H](Cc2ccc(F)cc2)NC(=O)CN(CCOC)C(=O)[C@@H](C)N(C)C(=O)[C@H](Cc2cscn2)NC(=O)[C@H](C)N(C)C1=O [compound 2] (cyclo([Ala(4-thiazolyl)][dNMeA][Nme][Phe(4-F)]T(Bz)[Phe(4-Cl)][NMeF][dP][hSer](Me)[NMeA]))
**A:** < 25 nM

Continuing:
**Q:** Find the recorded IC50 belonging to COCC[C@@H]1NC(=O)[C@H]2CCCN2C(=O)[C@H](Cc2ccc(F)cc2)N(C)C(=O)[C@H](Cc2ccc(Cl)cc2)NC(=O)[C@@H]2CCN2C(=O)[C@H](Cc2ccc(F)cc2)NC(=O)CN(CCOC)C(=O)[C@@H](C)N(C)C(=O)[C@H](Cc2cscn2)NC(=O)CN(C)C1=O [compound 23] (cyclo([Ala(4-thiazolyl)][dNMeA][Nme][Phe(4-F)][Aze][Phe(4-Cl)][NMePhe(4-F)][dP][hSer](Me)[Sar])) and report it.
**A:** 50 to 100 nM

**Q:** Follow-up item: COCC[C@@H]1NC(=O)[C@H]2CCCN2C(=O)[C@H](Cc2ccccc2)N(C)C(=O)[C@H](Cc2ccc(Cl)cc2)NC(=O)[C@H]([C@@H](C)OC)NC(=O)[C@H](Cc2ccc(F)cc2)NC(=O)CN(CCOC)C(=O)[C@@H](C)N(C)C(=O)[C@H](Cc2cscn2)NC(=O)[C@H](C)N(C)C1=O [compound 12] (cyclo([Ala(4-thiazolyl)][dNMeA][Nme][Phe(4-F)]T(Me)[Phe(4-Cl)][NMeF][dP][hSer](Me)[NMeA]))
**A:** < 25 nM

**Q:** Follow-up item: COCC[C@@H]1NC(=O)[C@H]2CCCN2C(=O)[C@H](Cc2ccccc2)N(C)C(=O)[C@H](Cc2ccc(Cl)cc2)NC(=O)[C@H](CC2CCCC2)NC(=O)[C@H](Cc2ccc(F)cc2)NC(=O)CN(CCOC)C(=O)[C@@H](C)N(C)C(=O)[C@H](C)N(C)C1=O [compound 15] (cyclo([Ala(cPent)][Phe(4-Cl)][NMeF][dP][hSer](Me)[NMeA][dNMeA][Nme][Phe(4-F)]))
**A:** 50 to 100 nM

**Q:** Follow-up item: CCN1CC(=O)N[C@@H](Cc2ccc(F)cc2)C(=O)N(C)[C@@H](C(C)C)C(=O)N[C@@H](Cc2ccc(Cl)cc2)C(=O)N(C)[C@@H](Cc2ccccc2)C(=O)N2CCC[C@@H]2C(=O)N[C@@H](CCOC)C(=O)N(C)[C@@H](C)C(=O)N[C@@H](Cc2cncs2)C(=O)N(C)[C@H](C)C1=O [compound 25] (cyclo([NEtG][Phe(4-F)][NMeV][Phe(4-Cl)][NMeF][dP][hSer](Me)[NMeA][Ala(thiazol-5-yl)][dNMeA]))
**A:** ≥ 100 nM
